- study_target: UniProt:P23743
- method_summary: Human DGKα kinase activity inhibition assay (ADP-Glo)
- recorded_conditions: recombinant full-length human DGKα, 55 μM ATP, 7 μM 1,2-dioleoyl-sn-glycerol, read-out: IC50 values of examples in in vitro human DGKa kinase activity inhibition assays
- Experimental: Human DGKα Kinase Activity Inhibition Assay Human DGKα inhibitory activity of compounds of the present invention was quantified employing the human DGKα kinase activity assay as described in the following paragraphs. In essence, the enzyme activity was measured by quantification of the adenosine-di-phosphate (ADP) generated as a co-product of the enzyme reaction via the “ADP-Glo™ Kinase Assay” kit from the company Promega. […]
readout: IC50
Write your answer as a measured quantity: the number, then the unit.

// below: answered molecules
{"cpd_smiles": "Cc1cc(C#N)c2cc(C3CCN(c4c(C#N)c(=O)n(C)c5ccccc45)CC3)ccc2n1", "IC50": "489 nM"}
{"cpd_smiles": "COCCNc1cc2c(cc1C)c(N1CCC(c3nc4cc(C)ccc4o3)CC1)c(C#N)c(=O)n2C", "IC50": "0.6 nM"}
{"cpd_smiles": "CNC(=O)c1c(N2CCC(c3nc4ccccc4s3)CC2)c2ccccc2n(C)c1=O", "IC50": "41 nM"}
{"cpd_smiles": "Cc1cccc(-n2ccc(C3CCN(c4c(C#N)c(=O)n(C)c5ccccc45)CC3)n2)c1", "IC50": "12 nM"}

Would you mind listing IC50 for each of the following molecules?
1. COc1ccc(C2CCN(c3c(C#N)c(=O)n(C)c4cc(-c5ccccc5)ccc34)CC2)cc1
2. Cn1c(=O)c(C#N)c(N2CCC(F)(c3nc4ccccc4s3)CC2)c2ccccc21

Reply:
["9.8 nM", "9.9 nM"]

Parameter requested: IC50. Apply to each item below.
1. Cc1ccc2c(c1)c(N1CCC(C)(c3nc4cc(C(C)C)ccc4o3)CC1)c(C#N)c(=O)n2C
2. COc1ccccc1-c1csc(C2CCN(c3c(C#N)c(=O)n(C)c4ccccc34)CC2)n1

Reply:
1. 15 nM
2. 9.9 nM

---

- study_target: DGKα (Homo sapiens (Human), UniProt P23743)
- Sequence (P23743 other isoform, or with tags, fused parts or gaps): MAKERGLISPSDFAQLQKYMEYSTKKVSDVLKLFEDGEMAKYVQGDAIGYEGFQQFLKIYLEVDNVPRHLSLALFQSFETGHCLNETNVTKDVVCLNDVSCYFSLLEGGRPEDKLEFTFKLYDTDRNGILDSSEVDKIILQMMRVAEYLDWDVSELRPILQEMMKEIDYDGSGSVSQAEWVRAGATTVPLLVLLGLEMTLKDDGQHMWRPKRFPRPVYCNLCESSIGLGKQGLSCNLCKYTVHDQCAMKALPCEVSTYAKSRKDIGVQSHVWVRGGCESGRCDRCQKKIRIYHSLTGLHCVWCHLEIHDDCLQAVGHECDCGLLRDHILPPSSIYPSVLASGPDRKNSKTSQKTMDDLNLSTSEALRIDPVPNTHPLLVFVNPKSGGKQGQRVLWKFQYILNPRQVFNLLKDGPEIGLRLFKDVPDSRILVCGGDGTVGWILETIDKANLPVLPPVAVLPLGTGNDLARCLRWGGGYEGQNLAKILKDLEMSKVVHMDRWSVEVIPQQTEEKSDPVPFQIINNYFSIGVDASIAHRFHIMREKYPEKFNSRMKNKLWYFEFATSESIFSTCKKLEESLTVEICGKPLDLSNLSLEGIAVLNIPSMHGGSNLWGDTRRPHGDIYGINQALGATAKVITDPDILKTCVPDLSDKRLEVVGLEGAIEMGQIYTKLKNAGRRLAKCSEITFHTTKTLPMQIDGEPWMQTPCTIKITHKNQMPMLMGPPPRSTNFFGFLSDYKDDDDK
- method_summary: Human DGKα kinase activity inhibition assay (ADP-Glo)
- recorded_conditions: recombinant full-length human DGKα, 55 μM ATP, 7 μM 1,2-dioleoyl-sn-glycerol, read-out: IC50 values of examples in in vitro human DGKa kinase activity inhibition assays
- Method: Human DGKα Kinase Activity Inhibition Assay Human DGKα inhibitory activity of compounds of the present invention was quantified employing the human DGKα kinase activity assay as described in the following paragraphs. In essence, the enzyme activity was measured by quantification of the adenosine-di-phosphate (ADP) generated as a co-product of the enzyme reaction via the “ADP-Glo™ Kinase Assay” kit from the company Promega. […]
Assign labels as follows, please: MET for IC50 below 30 nM; NOT MET for IC50 equal to or exceeding 30 nM.

Sample answers from the record:
{"cpd_smiles": "Cc1ccc2oc(C3CCN(c4c(C#N)c(=O)n(C)c5ccc(F)cc45)CC3)nc2c1", "label": "MET"}
{"cpd_smiles": "Cc1ccc2oc(C3(C)CCN(c4c(C#N)c(=O)n(C)c5ccc(C#N)cc45)CC3)nc2c1", "label": "MET"}
{"cpd_smiles": "Cn1c(=O)c(C#N)c(N2CCC(c3nc4cc(Cl)ccc4o3)CC2)c2cccc(Br)c21", "label": "NOT MET"}

Query: Quick check: does COc1ccc2cc(C3CCN(c4c(C(N)=O)c(=O)n(C)c5ccccc45)CC3)ccc2c1 have IC50 under 30 nM?
Reply: MET

Query: hey, is IC50 for Cn1c(=O)c(C#N)c(N2CCC(c3cccc(N=S(C)(C)=O)c3)CC2)c2ccccc21 lower than 30 nM or not?
Reply: NOT MET

Query: Given Cc1ccc2oc(C3CCN(c4c(C(N)=O)c(=O)n(C)c5cc(F)c(Br)cc45)CC3)nc2c1 , is recorded IC50 strictly lower than 30 nM?
Reply: MET

Query: Determine whether this molecule shows IC50 lower than 30 nM (ties excluded): Cc1ccccc1-c1nnc(C2CCN(c3c(C(N)=O)c(=O)n(C)c4ccccc34)CC2)o1
Reply: NOT MET

Query: Answer whether the molecule Cc1ccc2oc(C3(C)CCN(c4c(C#N)c(=O)n(C)c5ccc(C6CC(F)(F)C6)cc45)CC3)nc2c1 has IC50 strictly less than 30 nM
Reply: MET

---

- study_target: DGKα (Homo sapiens (Human))
- method_summary: Human DGKα kinase activity inhibition assay (ADP-Glo)
- recorded_conditions: recombinant full-length human DGKα, 55 μM ATP, 7 μM 1,2-dioleoyl-sn-glycerol, read-out: IC50 values of examples in in vitro human DGKa kinase activity inhibition assays
pIC50: −log10 of the molar value.
Entry flag: True if pIC50 reaches 8; False if it does not.

{"cpd_smiles": "Cn1c(=O)c(C#N)c(N2CCC(c3cnc4ccccc4n3)CC2)c2ccccc21", "label": "False"}

Query: Tell me whether pIC50 is at least 8 here: COc1ccc2oc(C3(F)CCN(c4c(C#N)c(=O)n(C)c5ccccc45)CC3)nc2c1
Reply: False

---

Provide the reported IC50 of each item.
- study_target: DGKα (Homo sapiens (Human), UniProt P23743)
- method_summary: Human DGKα kinase activity inhibition assay (ADP-Glo)
- recorded_conditions: recombinant full-length human DGKα, 55 μM ATP, 7 μM 1,2-dioleoyl-sn-glycerol, read-out: IC50 values of examples in in vitro human DGKa kinase activity inhibition assays
One number for each entry, in nM.

{"molecule": "Cn1c(=O)c(C#N)c(N2CCC(c3nc4ccc(Cl)cc4o3)CC2)c2cccc(Br)c21 [Example 157]", "measured": 252}
{"molecule": "CCC1(c2nc3cc(C)ccc3o2)CCN(c2c(C#N)c(=O)n(C)c3cc(Br)ccc23)CC1 [Example 141]", "measured": 5.6}
{"molecule": "Cc1ccc2oc(C3CCN(c4c(C(N)=O)c(=O)n(C)c5cc(OCC(N)=O)ccc45)CC3)nc2c1 [Example 508]", "measured": 1.4}

Query: Need IC50 of Cc1ccccc1-c1nnc(C2CCN(c3c(C(N)=O)c(=O)n(C)c4cc(O)c(Br)cc34)CC2)o1 [Example 529] , thanks.
Reply: 46

---

Hi there, I'd appreciate the recorded pIC50 for every entry that follows.
- study_target: DGKα (Homo sapiens (Human))
- method_summary: Human DGKα kinase activity inhibition assay (ADP-Glo)
- recorded_conditions: recombinant full-length human DGKα, 55 μM ATP, 7 μM 1,2-dioleoyl-sn-glycerol, read-out: IC50 values of examples in in vitro human DGKa kinase activity inhibition assays
Give bare numbers, as −log10 of the molar value.

{"cpd_smiles": "COc1ccc(C2CCN(c3c(C#N)c(=O)n(C)c4ccc(-c5ccccc5)cc34)CC2)cc1", "pIC50": 6.82}
{"cpd_smiles": "COc1ccc2c(c1)c(N1CCC(c3nc(-c4ccccc4)no3)CC1)c(C#N)c(=O)n2C", "pIC50": 7.57}
{"cpd_smiles": "Cn1c(=O)c(C#N)c(N2CCC(c3cccc4cnccc34)CC2)c2ccccc21", "pIC50": 6.98}

Then there is this molecule:
Query: Could you share what pIC50 was measured for Cc1cc2c(N3CCC(c4ccn(-c5ccccc5C)n4)CC3)c(C#N)c(=O)n(C)c2cc1Br , tested on DGKα (Homo sapiens (Human))?
Reply: 6.98

---

- study_target: DGKα (Homo sapiens (Human), UniProt P23743)
- method_summary: Human DGKα kinase activity inhibition assay (ADP-Glo)
- recorded_conditions: recombinant full-length human DGKα, 55 μM ATP, 7 μM 1,2-dioleoyl-sn-glycerol, read-out: IC50 values of examples in in vitro human DGKa kinase activity inhibition assays
readout: pIC50
Give bare numbers, as −log10 of the molar value.

Please review the following examples before continuing.
{"molecule": "Cc1ccc(-c2csc(C3CCN(c4c(C(N)=O)c(=O)n(C)c5ccccc45)CC3)n2)cc1", "pIC50": 8.03}
{"molecule": "Cn1c(=O)c(C#N)c(N2CCC(c3cccc4scnc34)CC2)c2ccccc21", "pIC50": 7.64}
{"molecule": "COc1ccccc1-c1csc(C2CCN(c3c(C(N)=O)c(=O)n(C)c4ccccc34)CC2)n1", "pIC50": 8.41}
{"molecule": "COc1cc2c(cc1Br)c(N1CCC(F)(c3nc4cc(C)ccc4o3)CC1)c(C#N)c(=O)n2C", "pIC50": 9.22}

Please report pIC50 for every entry that follows.
1. Cn1c(=O)c(C(N)=O)c(N2CCC(c3nc4cc(OCC5CCCO5)ccc4o3)CC2)c2ccccc21 (stereo not shown)
2. COc1ccc(C2CCN(c3c(C#N)c(=O)n(C)c4ccc(C5=CCOCC5)cc34)CC2)cc1
3. Cc1ccc2oc(C3(C)CCN(c4c(C#N)c(=O)n(C)c5cc(OC6CCC6)ccc45)CC3)nc2c1
4. COc1ccc2c(c1)c(N1CCC(c3nc(-c4cccc(C)c4)no3)CC1)c(C(N)=O)c(=O)n2C

Reply:
1. 7.89
2. 5.82
3. 8.16
4. 7.43
